System: HOP-62 NSCLC
Assay procedure: NCI tumour cell line growth inhibition, 48 h
Readout: TGI

According to the records, this compound N#Cc1cccc(C2C3=C(COC3=O)N(CCO)c3cc4c(cc32)OCO4)c1 (stereo not given) displays TGI of > 50 µM

According to the records, this compound COC(=O)C1CCc2nnc(-c3ccccc3)n21 (stereo not given) displays TGI of > 100 µM

According to the records, this compound "O=C(C(=C(I)I)c1ccccc1)c1ccccc1" displays TGI of 37.7 µM

According to the records, this compound Cc1cccc2c1CC(Cc1ccccc1C(=O)O)C2=O (stereo not given) displays TGI of > 100 µM

According to the records, this compound COc1ccc2c(c1)CN1CCc3c(cc(OC)c(OC)c3OC)C1C2 (stereo not given) displays TGI of > 100 µM

According to the records, this compound N#Cc1cccc(N2C(=O)C3C4C=CC(C3C2=O)C2C(=O)N(c3cccc(C#N)c3)C(=O)C42)c1 (stereo not given) displays TGI of 38.1 µM

According to the records, this compound "NC(=O)C1CCN(Cc2c(Cl)c(Cl)c(CN3CCC(C(N)=O)CC3)c(Cl)c2Cl)CC1" displays TGI of 39.7 µM

According to the records, this compound "N#CC1=C(N)NC(=O)NC12Nc1ccccc1N2" displays TGI of > 100 µM

According to the records, this compound "NC(=O)c1ccc[n+](C2=C([O-])c3ccccc3C(=O)/C2=N\S(=O)(=O)c2ccccc2)c1" displays TGI of 33 µM

According to the records, this compound "CC(=O)[CH-]C(=O)c1ccccc1.CC(=O)[CH-]C(=O)c1ccccc1.[O-]c1ccc2c(c1)OCO2.[O-]c1ccc2c(c1)OCO2.[Ti+4]" displays TGI of 93.8 µM

====

Test system: SF-268 CNS
Assay procedure: NCI tumour cell line growth inhibition, 48 h
Readout: TGI

According to the records, this molecule C/C(=C\CSCC(N)C(=O)O)CC/C=C(\C)CNc1ccccc1 (centres undefined) displays TGI of > 100 µM

According to the records, this molecule "CC(=O)[CH-]C(=O)c1ccccc1.CC(=O)[CH-]C(=O)c1ccccc1.[O-]c1ccc2c(c1)OCO2.[O-]c1ccc2c(c1)OCO2.[Ti+4]" displays TGI of > 100 µM

According to the records, this molecule Cc1cccc2c1CC(Cc1ccccc1C(=O)O)C2=O (centres undefined) displays TGI of > 100 µM

According to the records, this molecule "COc1ccc2c(c1)CCc1c-2n[nH]c1-c1[nH]nc2c1CCc1cc(OC)ccc1-2" displays TGI of > 100 µM

According to the records, this molecule "C[CH2][Sn]([CH2]C)([O]C(=O)c1ccc(F)cc1)[O]C(=O)c1ccc(F)cc1" displays TGI of 33.5 µM

According to the records, this molecule "C=C1C[C@@H]2O[C@H]3[C@H]4[C@@H](C[C@@H](C)[C@@H](OC(C)=O)[C@H]42)[C@@H](C)CO[C@@]3(C)[C@H](OC(=O)CCCCCCC)CC1=O" displays TGI of 36.9 µM

According to the records, this molecule CCCCN(CCCC)CC(C(C)=O)C(c1ccccc1)c1c(O)c2ccccc2oc1=O (centres undefined) displays TGI of > 100 µM

According to the records, this molecule "N#C/C(C(=O)NCc1ccccc1)=C(/N)N1CCCC1" displays TGI of > 100 µM

According to the records, this molecule "O=C(O)c1ccc(SSc2ccc(C(=O)O)cn2)nc1" displays TGI of > 100 µM

According to the records, this molecule CC(=O)NN1C(=O)C(Cc2ccccc2)c2ccccc21 (centres undefined) displays TGI of > 100 µM

According to the records, this molecule "O=C1N=C(Nc2nc(-c3csc(NC4=NC(=O)/C(=C\c5ccccc5)S4)n3)cs2)S/C1=C/c1ccccc1" displays TGI of > 50 µM

According to the records, this molecule CSc1ncc2c(n1)-c1ccccc1OC2NC1CC1 (centres undefined) displays TGI of > 100 µM

According to the records, this molecule "CC1=NOC(=O)/C1=C/c1ccc2c(c1)OCO2" displays TGI of > 100 µM

According to the records, this molecule "CCOC(=O)CN1C(=O)c2cc([N+](=O)[O-])cc3cc([N+](=O)[O-])cc(c23)C1=O" displays TGI of > 94.6 µM

According to the records, this molecule "CC(C)=CCc1c(O)cc2oc(-c3ccc(O)cc3O)cc(=O)c2c1O" displays TGI of > 100 µM

According to the records, this molecule "C=C(C)[C@@H]1CC[C@]2(C(=O)NS(=O)(=O)c3ccccc3)CC[C@]3(C)[C@H](CC[C@@H]4[C@@]5(C)CC[C@H](OC(=O)NS(=O)(=O)c6ccccc6)C(C)(C)[C@@H]5CC[C@]43C)[C@@H]12" displays TGI of 32.1 µM

According to the records, this molecule "CCOC(=O)c1c(-c2ccccc2)c(OC)cn1C" displays TGI of > 10 µM

According to the records, this molecule "N#CCCN(CCC#N)c1ccc(C(N=Nc2ccccc2)=Nc2ccc(F)cc2)cc1" displays TGI of > 100 µM

According to the records, this molecule "CC1(C)N=C(N)N=C(N)N1c1cccc(Cl)c1" displays TGI of > 100 µM

====

System: HCT-116 colon
Assay procedure: NCI tumour cell line growth inhibition, 48 h
Readout: GI50

According to the records, this compound "N#Cc1cc(S(=O)(=O)Nc2nc3ccccc3o2)c(SCc2ccccc2)cc1Cl" displays GI50 of 17800 nM

According to the records, this compound "C1=CCCC=CCC1.C[PH+](C)C.C[PH+](C)C.C[PH+](C)C.[Cl-].[Ir]" displays GI50 of 42900 nM

According to the records, this compound CC1SC(c2ccc(Cl)cc2Cl)N(NC(=O)C(O)c2ccccc2)C1=O (centres undefined) displays GI50 of 62000 nM

According to the records, this compound "CC(C)c1ccc(NC(=O)Cc2ccc(Nc3ncnc4cc(-c5cnn(CCN(C)C)c5)ccc34)cc2)cc1" displays GI50 of 1190 nM

According to the records, this compound O=C1NC(c2ccccc2)C2(C(=O)O)CN(C3CC3)c3cc(N4CCNCC4)c(F)cc3C2N1 (centres undefined) displays GI50 of > 100000 nM

According to the records, this compound "COC(=O)N[C@H]1CCc2c(Cl)c(OC)c(OC)c(OC)c2-c2ccc(SC)c(=O)cc21" displays GI50 of < 10 nM

According to the records, this compound "CC[PH+](CC)CC.[Cl][Au]" displays GI50 of 1840 nM

According to the records, this compound "Cc1ccc(C(=O)NC2CC2)cc1-c1ccc2[nH]ncc2c1" displays GI50 of > 25000 nM

According to the records, this compound "Cc1cc(O)c(-c2ccc([C@@H](C)CN(C)C)cc2)c2c1[nH]c(=O)c1sccc12" displays GI50 of 406 nM

According to the records, this compound "O=C([O-])CC(=O)[O-].[NH-][C@@H]1CCCC[C@H]1[NH-].[Pt+4]" displays GI50 of 4840 nM

According to the records, this compound "CNC(=O)c1cncc(/C=C/c2ccccc2Cl)c1" displays GI50 of > 25000 nM

According to the records, this compound "COc1cc2nccc(Oc3ccc(NC(=O)c4cn(C(C)C)c(=O)n(-c5ccc(F)cc5)c4=O)cc3F)c2cc1OC" displays GI50 of 5400 nM

According to the records, this compound "C[CH2][Sn]([CH2]C)([O]C(=O)c1ccc(F)cc1)[O]C(=O)c1ccc(F)cc1" displays GI50 of 33000 nM

According to the records, this compound "CC/C(=C/c1ccc(OC)cc1OC)[N+](=O)[O-]" displays GI50 of 1650 nM

According to the records, this compound "COc1ccc2[nH]c(C(=O)OCc3ccc4c(Cl)cc(Cl)c(O)c4n3)cc2c1" displays GI50 of 436 nM

According to the records, this compound "C[N+](C)=c1ccc2nc3c(cc(NCCCNc4cc5oc6cc(=[N+](C)C)ccc-6nc5c5ccccc45)c4ccccc43)oc-2c1" displays GI50 of 1950 nM

According to the records, this compound "CCC[CH2][Sn]1([CH2]CCC)[S]CC[N]1S(=O)(=O)c1ccc(C)cc1" displays GI50 of 1420 nM

According to the records, this compound "CCN(CC)CCCCNc1c2ccc(Cl)cc2nc2ccc(OC)cc12" displays GI50 of 301 nM

According to the records, this compound "COc1ccc(S(=O)(=O)N(C(C)=O)c2ccccc2/C=C/c2cc[n+]([O-])cc2)cc1" displays GI50 of 542 nM

====

Tested on: BT-549 breast
Assay procedure: NCI tumour cell line growth inhibition, 48 h
Readout: TGI (µM)
Expressed in µM, but write only the number.

According to the records, this compound "CC(C)(C)OC(=O)N[C@@H](Cc1ccccc1)C(=O)N(Cc1ccccc1)C1(C(=O)NCc2ccccc2)CCN(Cc2ccccc2)CC1" displays TGI of 8

According to the records, this compound N#Cc1cccc(N2C(=O)C3C4C=CC(C3C2=O)C2C(=O)N(c3cccc(C#N)c3)C(=O)C42)c1 (configuration not stated) displays TGI of 72.1

According to the records, this compound "COc1ccc2[nH]c(C(=O)OCc3ccc4c(Cl)cc(Cl)c(O)c4n3)cc2c1" displays TGI of 2.56

These entries and their values trace back to PubChem BioAssay (NCI).
